Sourced from the nanobody polyreactivity screen of Harvey et al. (2022)

- measurement notes: yeast display, Sf9 membrane polyspecificity reagent, FACS + sequencing; frameworks hold sequencing errors
measurement kind: polyreactivity (PSR sort gate)

Worked examples, 4 sequences total:
Prompt: Fill in: polyreactivity (PSR sort gate) of `QDQLVESGGGLVQAGGSLRLSCAASGRIFPYYAMGRYRQAPGKERELVASISGSGGRTYYADSVKGRFTISRDNAKNTVSLQMNSLKPEDTAVYYCAAYWYKVPGKYGYWGQGTQVTVSS` is ___
Completion: high polyreactivity

Prompt: So what does the record say about polyreactivity (PSR sort gate) for `QVQLVESGGGLVQAGGSLPLSCAASGRTYVSYVMGRYRQAPGKEREFVAAISRSGGNTYYADSVKGRFTISRDTAKNTVYLQMNSLNPEDTAVYYCYVLLQRVYGTAPSFDYWGQGTQVTVSS` ?
Completion: high polyreactivity

Prompt: GET /values?readout=polyreactivity (PSR sort gate)&item= `QVQLVESGGGLVQAGGSLRLSCAASGSIFSRYAMGWYRQAPGKERELVAAITSSGGRTYYADSVKGRFTISRDNAKNTVYLQMNSLKPEDTAVYYCAAEYYYIVTYDFGYWGQGTQVTVSS`
Completion: low polyreactivity

Prompt: Quick one: polyreactivity (PSR sort gate) for `QVQLVESGGGLVQAGGSLRLSCAASGSIFVGYAMGWYRQAPGKERELVAAITGSGTRTYYADSVKGRFTISRDNAKNTVYLQMNSLKPEDTAVYYCAAPLSYKNVKYDYWGQGTQVTVSS` ?
Completion: low polyreactivity

Continuing:
Prompt: Suppose we examine the sequence `QVQLVESGGGLVQAGGSLRLSCAASGRTFDGYAMGWYRPAPGKERELVAAITYTGGSTYYADSVKGRFTISRDNAKNTVYLQMNSLKPEDTAVYYCNALYAVYSDFADDYWGQGTQVTVSS` ; what polyreactivity (PSR sort gate) value has been reported?
Completion: low polyreactivity
